# Tested on: HCC-2998 colon
# ASSAY NAME: NCI-60 one-dose screen, 48 h (100 = growth as untreated, 0 = no growth, -100 = all killed)
# STATED CONDITIONS: 10 µM
# Description: Growth inhibition of the HCC-2998 human tumor cell line is measured as a screen for anti-cancer activity. Cells are grown in 96 well plates and exposed to the test compound for 48 hours. Compounds are tested at a single concentration, which is 10^-5 M for most compounds. The reported endpoint is percent growth (GI% or GIPRCNT), where numbers from 0 - 100% represent growth inhibition, and numbers from -100% - 0 represent cell death. For example, a value of 40 represents 60% growth inhibition. […]
The panel holds about 83,000 compounds, 20% with a hit somewhere; the sample as a whole holds those more often. Active and inactive are the calls of the source. The calls were made as follows: active = growth percent below 10; inactive = the rest.
ENDPOINT LABEL: growth

`COc1ccccc1/C=C/[N+](=O)[O-]` yielded growth of 88.7% (inactive)

`N#CCc1ccccc1` yielded growth of 106% (inactive)

`O=C1C(=O)c2ccccc2-c2ccccc21` yielded growth of -35.4% (active)

`CCCCCCCC[N+]12CN3CN(CN(C3)C1)C2` yielded growth of 98.3% (inactive)

CC12OOC(c3ccccc31)c1c2ccc2ccccc12 (stereo not drawn) yielded growth of -91.7% (active)

`CC(=O)Nc1c2sscc-2n(C)c1=O` yielded growth of -100% (active)

`O=[N+]([O-])/C=C\c1ccc2c(c1)OCO2` yielded growth of 52.6% (inactive)

CC(C)C1(NC(=O)C2CC3c4cccc5[nH]cc(c45)CC3N(C)C2)OC2(O)C3CCCN3C(=O)C(Cc3ccccc3)N2C1=O (stereo not drawn) yielded growth of 105% (inactive)

`COc1cc([C@@H]2c3cc4c(c(O)c3C[C@H]3COC(=O)[C@@H]32)OCO4)cc(OC)c1OC` yielded growth of -54.8% (active)

`O=[N+]([O-])c1ccc(Br)c([N+](=O)[O-])c1` yielded growth of 96.2% (inactive)

`[Cl][Hg][c]1ccc2ccccc2c1` yielded growth of -49% (active)

`CN(CCCl)c1ccc(/C=C/C2=[N+](C)c3ccccc3C2(C)C)cc1` yielded growth of 26% (inactive)

`NNc1ccccc1` yielded growth of 104% (inactive)

`O=C(CBr)Nc1ccccc1` yielded growth of 105% (inactive)

CCOP(=O)(OCC)C(O)c1ccccc1Cl (stereo not drawn) yielded growth of 102% (inactive)

`O=C1C=Cc2ccccc2C1=O` yielded growth of 112% (inactive)

`COS(=O)(=O)c1ccccc1` yielded growth of 101% (inactive)

`[Cl][Hg][c]1ccc(Cl)s1` yielded growth of 111% (inactive)

`CC(=O)[O][Hg][c]1c(C)c(C)cc(C)c1C` yielded growth of 12.5% (inactive)

`O=C(CBr)Nc1ccc(Cl)cc1` yielded growth of 112% (inactive)

`C[C@@H]1C[C@@H]([C@H](O)CC2CC(=O)NC(=O)C2)C(=O)[C@@H](C)C1` yielded growth of 2.14% (active)

O=C(O)c1cc(Cc2ccc(O)c(C(=O)O)c2)ccc1O (tested in a mixture with another compound) yielded growth of 53.9% (inactive)

`Cn1c(O)c(N=O)c(=O)n(C)c1=O` yielded growth of 107% (inactive)

COC(C(=O)C(O)C(C)O)C1Cc2cc3cc(OC4CC(OC(C)=O)C(OC5CC(O)C(OC)C(C)O5)C(C)O4)cc(O)c3c(O)c2C(=O)C1OC1CC(OC2CC(OC3CC(C)(O)C(OC(=O)C(C)C)C(C)O3)C(O)C(C)O2)C(O)C(C)O1 (stereo not drawn) yielded growth of -94.4% (active)

CS(=N)(=O)CCC(N)C(=O)O (stereo not drawn) yielded growth of 92.7% (inactive)

`COc1cc([N+](=O)[O-])c2ncccc2c1[N+](=O)[O-]` yielded growth of 102% (inactive)

`O=S(=O)(F)c1ccc(Cl)cc1` yielded growth of 83.2% (inactive)

`CC/C(=C/c1ccc(OC)cc1)[N+](=O)[O-]` yielded growth of 85.1% (inactive)

* * *

# System: HL-60(TB) leukemia
# ASSAY NAME: NCI-60 one-dose screen, 48 h (100 = growth as untreated, 0 = no growth, -100 = all killed)
# STATED CONDITIONS: 10 µM
About 83,000 compounds went through this panel and 20% of them were active in at least one assay; those are over-represented in the sample as a whole.
Exercise: for every item that follows, state its recorded growth.
Record the value in %, omitting the unit from your answer.

`C/C1=C\[C@H](C)C[C@H](C)OC(=O)C[C@H](c2ccc(O)cc2)NC(=O)[C@@H](Cc2c(Br)[nH]c3ccccc23)N(C)C(=O)[C@H](C)NC(=O)[C@@H](C)C1` yielded growth of -44

`COc1cc([C@@H]2c3cc4c(c(O)c3C[C@H]3COC(=O)[C@@H]32)OCO4)cc(OC)c1OC` yielded growth of -33.5

`CC/C(=C/c1ccc(OC)cc1)[N+](=O)[O-]` yielded growth of -1.61

COC(C(=O)C(O)C(C)O)C1Cc2cc3cc(OC4CC(OC(C)=O)C(OC5CC(O)C(OC)C(C)O5)C(C)O4)cc(O)c3c(O)c2C(=O)C1OC1CC(OC2CC(OC3CC(C)(O)C(OC(=O)C(C)C)C(C)O3)C(O)C(C)O2)C(O)C(C)O1 (stereo not drawn) yielded growth of -46.3

`CC(C)c1cc([N+](=O)[O-])cc([N+](=O)[O-])c1O` yielded growth of 62.2

`CCCCCCCC[N+]12CN3CN(CN(C3)C1)C2` yielded growth of 137

`O=C1C(=O)c2ccccc2-c2ccccc21` yielded growth of -42.4

COC1CC2C=C(C)/C=C/C=C/C(=O)NC(c3ccccc3)C/C=C/CCC(O)CC(=O)C2=C1O (stereo not drawn) yielded growth of -5.27

* * *

# Tested on: 786-0 renal
# ASSAY NAME: NCI-60 one-dose screen, 48 h (100 = growth as untreated, 0 = no growth, -100 = all killed)
# STATED CONDITIONS: 10 µM
The panel holds about 83,000 compounds, 20% with a hit somewhere; the sample as a whole holds those more often.
ENDPOINT LABEL: growth (%)
Record the value in %, omitting the unit from your answer.

growth for 786-0 renal with input CC12OOC(c3ccccc31)c1c2ccc2ccccc12 (centres undefined) equals 66.1

growth for 786-0 renal with input COC12C(COC(N)=O)C3=C(C(=O)C(C)=C(N)C3=O)N1CC1C2N1C (centres undefined) equals 31.1

growth for 786-0 renal with input `[Cl][Hg][c]1ccc2ccccc2c1` equals -92.2

growth for 786-0 renal with input `O=S(=O)(F)c1ccc(Cl)cc1` equals 107

growth for 786-0 renal with input `O=C(CCl)Nc1ccc(Cl)cc1` equals 44.7

growth for 786-0 renal with input `O=C1C=Cc2ccccc2C1=O` equals 110

growth for 786-0 renal with input `NNc1ccccc1` equals 79.7

growth for 786-0 renal with input COC1CC2C=C(C)/C=C/C=C/C(=O)NC(c3ccccc3)C/C=C/CCC(O)CC(=O)C2=C1O (centres undefined) equals -94.3

growth for 786-0 renal with input `Oc1c(Cl)cc(Cl)c2ccccc12.[Cu+2]` equals 116

growth for 786-0 renal with input `CC/C(=C/c1ccc(OC)cc1OC)[N+](=O)[O-]` equals -53

growth for 786-0 renal with input CC(C)C1(NC(=O)C2CC3c4cccc5[nH]cc(c45)CC3N(C)C2)OC2(O)C3CCCN3C(=O)C(Cc3ccccc3)N2C1=O (centres undefined) equals 96.3

growth for 786-0 renal with input `Cc1cc(C(C)(C)c2ccc(O)c(C)c2)ccc1O` equals 102

growth for 786-0 renal with input `[Cl][Hg][c]1ccc(Cl)s1` equals -54.5

growth for 786-0 renal with input `COc1cc([N+](=O)[O-])c2ncccc2c1[N+](=O)[O-]` equals 77.7

growth for 786-0 renal with input CC1CCC2(OC1)OC1C(O)C3C4CCC5CC(OC6OC(CO)C(OC7OC(CO)C(O)C(OC8OCC(O)C(O)C8O)C7OC7OC(CO)C(O)C(OC8OC(CO)C(O)C(O)C8O)C7O)C(O)C6O)C(O)CC5(C)C4CCC3(C)C1C2C (centres undefined) equals -92

growth for 786-0 renal with input `O=[N+]([O-])c1cc[n+]([O-])c2ccccc12` equals -49.2

growth for 786-0 renal with input `CC(=O)Nc1c2sscc-2n(C)c1=O` equals -100

growth for 786-0 renal with input `CCOP(=O)(OCC)/C(C#N)=C/c1ccc(Br)cc1` equals 104

growth for 786-0 renal with input `O=[N+]([O-])c1ccc(N(CCO)CCO)c2c1no[n+]2[O-]` equals -31.5

growth for 786-0 renal with input `CC(C)(C)OOC(=O)/C=C\C(=O)OOC(C)(C)C` equals 108

growth for 786-0 renal with input `COS(=O)(=O)c1ccccc1` equals 115

growth for 786-0 renal with input `CC(C)c1cc([N+](=O)[O-])cc([N+](=O)[O-])c1O` equals 101

growth for 786-0 renal with input CS(=N)(=O)CCC(N)C(=O)O (centres undefined) equals 102

growth for 786-0 renal with input `N#CCc1ccccc1` equals 101
